B1: TPR t1 (parent)
chain: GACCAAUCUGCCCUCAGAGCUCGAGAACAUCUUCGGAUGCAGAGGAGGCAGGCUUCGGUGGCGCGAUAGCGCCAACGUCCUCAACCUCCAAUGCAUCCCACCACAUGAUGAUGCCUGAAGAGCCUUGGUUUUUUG

variants of: B1; assay: polymerase ribozyme fitness, log enrichment relative to wild type (log ratio); higher = more active; in vitro selection for triplet polymerase activity
Form field: polymerase ribozyme fitness (log ratio) (one value per entry).
Quantity Kind: polymerase ribozyme fitness (log ratio)

{"Sequence Variant": "A5C C13U A84C U131A", "Quantity Kind": "polymerase ribozyme fitness (log ratio)", "Reading": -2.02}
{"Sequence Variant": "G48C C97G", "Quantity Kind": "polymerase ribozyme fitness (log ratio)", "Reading": -4.14}
{"Sequence Variant": "A6U C22G U87A U92C A121U", "Quantity Kind": "polymerase ribozyme fitness (log ratio)", "Reading": -2.63}
{"Sequence Variant": "C64A U87A", "Quantity Kind": "polymerase ribozyme fitness (log ratio)", "Reading": -6.3}
{"Sequence Variant": "A2C G61U", "Quantity Kind": "polymerase ribozyme fitness (log ratio)", "Reading": -1.66}
{"Sequence Variant": "A27U A68U A90C G93A C101G G110U", "Quantity Kind": "polymerase ribozyme fitness (log ratio)", "Reading": -7.92}
{"Sequence Variant": "C13U C99U U133G", "Quantity Kind": "polymerase ribozyme fitness (log ratio)", "Reading": -2.46}
{"Sequence Variant": "G47A C56G", "Quantity Kind": "polymerase ribozyme fitness (log ratio)", "Reading": -1.29}
{"Sequence Variant": "G17U G19U G69U A84U G93A", "Quantity Kind": "polymerase ribozyme fitness (log ratio)", "Reading": -4.27}
{"Sequence Variant": "G19A C73A A105U C114U U116G", "Quantity Kind": "polymerase ribozyme fitness (log ratio)", "Reading": -5.41}
{"Sequence Variant": "C49U G51A C88A", "Quantity Kind": "polymerase ribozyme fitness (log ratio)", "Reading": -3.64}

Where do these numbers come from? They come from the RNAGym collection of RNA variant scans (doi:10.1073/pnas.2313332121).
